Answer each item with its documented SPOT peptide array binding signal intensity.
# System tested: CaHof1
# Assay info: SPOT peptide array binding signal intensity (averaged, normalized) (arbitrary units (background-subtracted, floor 0; scale differs between SH3 domains)); higher = stronger binding of the SH3 domain to the peptide
Could you respond with only the numeric value?

Give the reported SPOT peptide array binding signal intensity for this binder. DRIRMFIRFPKFLLE
0.5

Give the reported SPOT peptide array binding signal intensity for this binder. GQYRRTIVIPRRFFT
5

Give the reported SPOT peptide array binding signal intensity for this binder. RRGPAPPPPPRASRP
6.5

Give the reported SPOT peptide array binding signal intensity for this binder. RTRRRPPPPPIPSTQ
0.5

Give the reported SPOT peptide array binding signal intensity for this binder. EAEEAAPQLPSRSSA
0.25

Give the reported SPOT peptide array binding signal intensity for this binder. PVLPPPRSPNRPTLS
2

Give the reported SPOT peptide array binding signal intensity for this binder. RKNRAPPQRPRFNRE
0.5

Give the reported SPOT peptide array binding signal intensity for this binder. KKAPPPVVKPKPRNF
1

Give the reported SPOT peptide array binding signal intensity for this binder. GLRRARYKFPGQQKI
1

Give the reported SPOT peptide array binding signal intensity for this binder. YLTRPLPSTPNEDSR
69.8

Give the reported SPOT peptide array binding signal intensity for this binder. NTMKKRPAPPSLPSL
0.5
